Target: T1, recombinant human MASP1 active protease (amino acids 297-699, C-terminal His Tag) (human, UniProt P48740 297-699)
T1 sequence: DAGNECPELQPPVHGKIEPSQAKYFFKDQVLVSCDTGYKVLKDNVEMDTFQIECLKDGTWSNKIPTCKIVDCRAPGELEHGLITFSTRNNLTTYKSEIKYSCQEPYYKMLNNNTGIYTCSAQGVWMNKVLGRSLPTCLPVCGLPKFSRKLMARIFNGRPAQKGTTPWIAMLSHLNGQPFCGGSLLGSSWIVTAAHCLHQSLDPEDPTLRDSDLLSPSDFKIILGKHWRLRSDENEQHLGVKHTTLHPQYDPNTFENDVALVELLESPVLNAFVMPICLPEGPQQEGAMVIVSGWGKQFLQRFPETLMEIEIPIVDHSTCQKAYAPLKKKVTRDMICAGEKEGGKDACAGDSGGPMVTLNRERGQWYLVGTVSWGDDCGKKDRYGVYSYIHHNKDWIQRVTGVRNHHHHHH
Assay: cell-based or functional assay
Bridge positions count the residues as written; N and C are the ends. Square brackets hold non-standard residues; d marks the D form. Ends that are not written are not given here. * marks the point of attachment. Oic = O=C(O)[C@@H]1C[C@@H]2CCCC[C@@H]2N1; Phe(3-Br) = N[C@@H](Cc1cccc(Br)c1)C(=O)O; Cyclopentanecarbonyl = O=C(C1CCCC1)*; tBuAla = CC(C)(C)C[C@H](N)C(=O)O; (3-Me)H = L-3-methylhistidine; Pen = CC(C)(S)[C@H](N)C(=O)O; NMeC = CN[C@@H](CS)C(=O)O; Abu = CC[C@H](N)C(=O)O; Sar = CNCC(=O)O
Kindly apply the following: T if human MASP1 IC50 is less than 9 nM, F in every other case.

Consider the worked cases shown below.
[Phe(3-Br)]ICSRS[tBuAla]PPI[Pen]IPD-NH2 (disulfide 3-11; N-terminus assumed; SMILES CC[C@H](C)[C@H](NC(=O)[C@@H](N)Cc1cccc(Br)c1)C(=O)N[C@H]1CSSC(C)(C)[C@@H](C(=O)N[C@H](C(=O)N2CCC[C@H]2C(=O)N[C@@H](CC(=O)O)C(N)=O)[C@@H](C)CC)NC(=O)[C@H]([C@@H](C)CC)NC(=O)[C@@H]2CCCN2C(=O)[C@@H]2CCCN2C(=O)[C@H](CC(C)(C)C)NC(=O)[C@H](CO)NC(=O)[C@H](CCCNC(=N)N)NC(=O)[C@H](CO)NC1=O) [Example 330: ((3-Bromo)F)-IC+SRS-((tBu)A)-PPI-(Pen)+IPD-NH2]; F
[Sar]ICSRSLPPICI[Abu]D-OH (disulfide 3-11; N-terminus assumed; SMILES CC[C@H](NC(=O)[C@@H](NC(=O)[C@@H]1CSSC[C@H](NC(=O)[C@@H](NC(=O)CNC)[C@@H](C)CC)C(=O)N[C@@H](CO)C(=O)N[C@@H](CCCNC(=N)N)C(=O)N[C@@H](CO)C(=O)N[C@@H](CC(C)C)C(=O)N2CCC[C@H]2C(=O)N2CCC[C@H]2C(=O)N[C@@H]([C@@H](C)CC)C(=O)N1)[C@@H](C)CC)C(=O)N[C@@H](CC(=O)O)C(=O)O) [Example 313: ((N-Me)G)-IC+SRSLPPIC+I-(Abu)-D-OH]; F
Cyclopentanecarbonyl-ICSRS[tBuAla]PPI[NMeC]I-NH2 (disulfide 2-10; SMILES CC[C@H](C)[C@H](NC(=O)[C@@H]1CSSC[C@H](NC(=O)[C@@H](NC(=O)C2CCCC2)[C@@H](C)CC)C(=O)N[C@@H](CO)C(=O)N[C@@H](CCCNC(=N)N)C(=O)N[C@@H](CO)C(=O)N[C@@H](CC(C)(C)C)C(=O)N2CCC[C@H]2C(=O)N2CCC[C@H]2C(=O)N[C@@H]([C@@H](C)CC)C(=O)N1C)C(N)=O) [Example 408: (Cyclopentanecarboxylic acid)-IC+SRS-((tBu)A)-PPI-((N-Me)C)+I-NH2]; F

Field: next binder
Query :: Please indicate whether the reported human MASP1 IC50 of [(3-Me)H]ICSRSLP[Oic]I[Pen]IP-NH2 (disulfide 3-11) [Example 444: ((3-Me)H)-IC+SRSLP-(Oic)-I-(Pen)+IP-NH2] is strictly below 9 nM.
Result :: T
